TARGET_ENTITY: 5-HT7R (Homo sapiens (Human))
Sequence (P34969 whole entry): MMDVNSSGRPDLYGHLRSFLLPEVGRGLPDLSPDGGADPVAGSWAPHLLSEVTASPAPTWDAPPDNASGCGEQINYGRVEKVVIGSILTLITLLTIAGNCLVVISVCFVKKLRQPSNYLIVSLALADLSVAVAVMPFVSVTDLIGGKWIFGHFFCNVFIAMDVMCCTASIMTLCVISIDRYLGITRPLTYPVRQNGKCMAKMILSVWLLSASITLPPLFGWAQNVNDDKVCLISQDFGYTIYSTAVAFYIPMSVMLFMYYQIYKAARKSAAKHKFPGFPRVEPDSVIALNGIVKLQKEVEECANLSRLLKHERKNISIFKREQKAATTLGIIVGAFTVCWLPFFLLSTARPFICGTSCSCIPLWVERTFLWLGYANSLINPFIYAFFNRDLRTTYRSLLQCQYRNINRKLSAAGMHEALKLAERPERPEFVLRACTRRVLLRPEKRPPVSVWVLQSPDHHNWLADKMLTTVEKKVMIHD
METHOD_DESCRIPTION: cAMP assay (luminescence-based, GloSensor)
Assay type: cell-based
MEASUREMENT_PARAMETERS: 10 μM; HEK293 cells transfected with human 5-HT7R and GloSensor-22F
The class of a record is decided solely by its measured inhibition at 10 µM; consult 1 (below 40%), 2 (40% to below 50%), 3 (50% or more)

Previously resolved entries follow.
COc1cccc(OC)c1-c1cccc(CN2CCCC2)c1 [Compound 11]: 1
Clc1ccc(-c2cccc(C3=NCCN3)c2)cc1 [Compound 26]: 2

(Q) Category of Cc1ccc(-c2cc(CN3CCCC3)ccc2Cl)cc1 [Compound 18] :
(A) 3

(Q) Category of Clc1cccc(-c2cccc(CN3CCCC3)c2)c1 [Compound 3] :
(A) 3

(Q) Category of Clc1ccc(C2=NCCN2)cc1-c1ccccc1 [Compound 34] :
(A) 2
